Origin of the recorded values: patent US20160108038A1

Test: log P determination by HPLC on reversed-phase columns (C 18), analogous to OECD Guideline 117
Format: physicochemical
Settings: neutral range, pH 7.8, 0.001 molar aqueous ammonium hydrogencarbonate and acetonitrile
measured-quantity: logP(neutral)
Form rule: numeric answer, no unit written next to it.

These recorded examples may help you get a feel for the data.
# compound, logP(neutral)
rows = [
    ("Cc1cc(C)c(-n2c(C)nc3ncccc3c2=O)cc1SCC(F)(F)F", 2.60),
    ("Cc1cc(C)c(-n2cnc3ncccc3c2=O)cc1SCC(F)(F)F", 2.54),
    ("Cc1cc(C)c([S+]([O-])CC(F)(F)F)cc1-n1cnc2ncccc2c1=O (stereo not drawn)", 1.61),
    ("Cc1cc(F)c(-n2cnc3ccncc3c2=O)cc1[S+]([O-])CC(F)(F)F (stereo not drawn)", 1.64),
]

Would you kindly look at the next entry?
In: // lookup logP(neutral) for Cc1cc(Cl)c(-n2cnc3ncccc3c2=O)cc1[S+]([O-])CC(F)(F)F (stereo not drawn)
Out: 1.73

---

Test: log P determination by HPLC on reversed-phase columns (C 18), analogous to OECD Guideline 117
Type: physicochemical
Conditions: acidic range, pH 2.7, 0.1% aqueous formic acid and acetonitrile
measured-quantity: logP(HCOOH)
Enter a number only.

# example entries with known answers
# compound, measured-quantity, reported-value
records = [
    ("Cc1cc(C)c(-n2c(C)nc3ncccc3c2=O)cc1SCC(F)(F)F [Compound 16]", "logP(HCOOH)", 2.63),
    ("Cc1cc(C)c([S+]([O-])CC(F)(F)F)cc1-n1cnc2ncccc2c1=O (stereo not drawn) [Compound 6]", "logP(HCOOH)", 1.62),
    ("Cc1cc(Cl)c(-n2cnc3ncccc3c2=O)cc1[S+]([O-])CC(F)(F)F (stereo not drawn) [Compound 18]", "logP(HCOOH)", 1.77),
    ("Cc1cc(F)c(-n2cnc3cccnc3c2=O)cc1SCC(F)(F)F [Compound 9]", "logP(HCOOH)", 2.33),
    ("Cc1cc(C)c(-n2cnc3ncccc3c2=O)cc1SCC(F)(F)F [Compound 4]", "logP(HCOOH)", 2.53),
]

In: Recorded logP(HCOOH) for O=c1c2cccnc2ncn1-c1cc([S+]([O-])CC(F)(F)F)c(Cl)cc1Cl (stereo not drawn) [Compound 7] , please?
Out: 1.98

In: Which value of logP(HCOOH) has been reported for Cc1cc(F)c(-n2cnc3cnccc3c2=O)cc1SCC(F)(F)F [Compound 12] in the records?
Out: 2.55

In: What does the data say about its logP(HCOOH)? Entry: O=c1c2cccnc2ncn1-c1cc(SCC(F)(F)F)c(Cl)cc1Cl [Compound 3]
Out: 2.73

In: Recorded logP(HCOOH) of Cc1cc(C)c([S+]([O-])CC(F)(F)F)cc1-n1c(C)nc2ncccc2c1=O (stereo not drawn) [Compound 17] , please.
Out: 1.67

---

Test: log P determination by HPLC on reversed-phase columns (C 18), analogous to OECD Guideline 117
Format: physicochemical
Conditions: reversed-phase C18 HPLC column; acidic range, pH 2.7, 0.1% aqueous formic acid and acetonitrile; read-out: logP(HCOOH)
Description: The log P values were determined analogously to OECD Guideline 117 (EC Directive 92/69/EEC) by HPLC (high-performance liquid chromatography) using reversed-phase columns (C 18), by the following methods: [a] The LC-MS determination in the acidic range was effected at pH 2.7 with 0.1% aqueous formic acid and acetonitrile (contains 0.1% formic acid) as eluents; linear gradient from 10% acetonitrile to 95% acetonitrile. log P^[a] is also referred to as log P(HCOOH). [b] […]
The threshold is inclusive: chromatographic logP of exactly 2 counts as y; values below receive n.

// known answers, use as guide
# molecule, discrete-label
measured = [
    ("Cc1cc(F)c(-n2c(C)nc3ncccc3c2=O)cc1[S+]([O-])CC(F)(F)F (stereo not drawn)", "n"),
    ("Cc1cc(F)c(-n2cnc3ncccc3c2=O)cc1[S+]([O-])CC(F)(F)F (stereo not drawn)", "n"),
]

In: Reported chromatographic logP at or above 2? Cc1cc(F)c(-n2c(C)nc3ncccc3c2=O)cc1SCC(F)(F)F
Out: y

In: Could you verify whether the entry Cc1cc(F)c(-n2cnc3ncccc3c2=O)cc1SCC(F)(F)F shows chromatographic logP of no less than 2?
Out: y

In: Textbook exercise: given the entry Cc1nc2ncccc2c(=O)o1 , state whether its chromatographic logP is greater than or equal to 2.
Out: n

In: // inclusive: chromatographic logP at least 2? input: Cc1cc(F)c(NC(=O)c2cccnc2N)cc1SCC(F)(F)F
Out: n
